- Tested on: LPS-induced TNF-α release in peripheral blood mononuclear cells (PBMCs)
- experiment: In vitro determination of PDE4 inhibitory activity in the PBMCs assay (LPS-induced TNF-α release)
- Assay type: cell-based, human
- cond: PBMC; human PBMCs, LPS 3 ng/ml, 18 hours, TNF-α by ELISA; read-out: PDE4 inhibition (IC50, 50% inhibition of LPS-induced TNF-α release)
measure.name: IC50

{"compound": "Cc1noc2ncc(S(=O)(=O)N3CCC[C@H]3C(=O)O[C@@H](Cc3c(Cl)c[n+]([O-])cc3Cl)c3ccc(OC(F)F)c(OCC4CC4)c3)cc12", "IC50": "< 0.1 nM"}
{"compound": "CN1CCOc2ccc(S(=O)(=O)N3CCC[C@H]3C(=O)O[C@@H](Cc3c(Cl)c[n+]([O-])cc3Cl)c3ccc(OC(F)F)c(OCC4CC4)c3)cc21", "IC50": "< 0.1 nM"}
{"compound": "CS(=O)(=O)c1ccc(S(=O)(=O)N2CCSC2C(=O)O[C@@H](Cc2c(Cl)c[n+]([O-])cc2Cl)c2ccc(OC(F)F)c(OCC3CC3)c2)cc1 (stereo partly shown)", "IC50": "< 0.1 nM"}
{"compound": "Cn1ccnc1S(=O)(=O)N1CCCC[C@H]1C(=O)O[C@@H](Cc1c(Cl)c[n+]([O-])cc1Cl)c1ccc(OC(F)F)c(OCC2CC2)c1", "IC50": "< 0.1 nM"}
{"compound": "CS(=O)(=O)c1ccc(S(=O)(=O)N2CCS[C@H]2C(=O)O[C@@H](Cc2c(Cl)c[n+]([O-])cc2Cl)c2ccc(OC(F)F)c(OCC3CC3)c2)cc1", "IC50": "< 0.1 nM"}
{"compound": "Cn1ccnc1S(=O)(=O)N1CCS[C@H]1C(=O)O[C@@H](Cc1c(Cl)c[n+]([O-])cc1Cl)c1ccc(OC(F)F)c(OCC2CC2)c1", "IC50": "< 0.1 nM"}
{"compound": "COc1ccc(S(=O)(=O)N2CCSC2C(=O)O[C@@H](Cc2c(Cl)c[n+]([O-])cc2Cl)c2ccc(OC(F)F)c(OCC3CC3)c2)cc1OC (stereo partly shown)", "IC50": "< 0.1 nM"}
{"compound": "O=C(O[C@@H](Cc1c(Cl)c[n+]([O-])cc1Cl)c1ccc(OC(F)F)c(OCC2CC2)c1)C1SCCN1S(=O)(=O)c1cccc(F)c1 (stereo partly shown)", "IC50": "0.1 to 1 nM"}

Query: Hello, I am looking for reported IC50 with LPS-induced TNF-α release in peripheral blood mononuclear cells (PBMCs) for CN(C)C(=O)c1cccc(S(=O)(=O)N2CCC[C@@H]2C(=O)O[C@@H](Cc2c(Cl)c[n+]([O-])cc2Cl)c2ccc(OC(F)F)c(OCC3CC3)c2)c1 . Could you help?
Response: 0.1 to 1 nM

Query: Hello, I am looking for reported IC50 with LPS-induced TNF-α release in peripheral blood mononuclear cells (PBMCs) for Cn1ccnc1S(=O)(=O)N1CCS[C@H]1C(=O)O[C@@H](Cc1c(Cl)cncc1Cl)c1ccc(OC(F)F)c(OCC2CC2)c1 . Could you help?
Response: 0.1 to 1 nM

Query: Hello, I am looking for reported IC50 with LPS-induced TNF-α release in peripheral blood mononuclear cells (PBMCs) for O=C1NC(=O)c2cc(S(=O)(=O)N3CCSC3C(=O)O[C@@H](Cc3c(Cl)c[n+]([O-])cc3Cl)c3ccc(OC(F)F)c(OCC4CC4)c3)ccc21 (stereo partly shown) . Could you help?
Response: 0.1 to 1 nM

Query: Hello, I am looking for reported IC50 with LPS-induced TNF-α release in peripheral blood mononuclear cells (PBMCs) for COc1ccc(C(=O)N2CCC[C@H]2C(=O)O[C@@H](Cc2c(Cl)c[n+]([O-])cc2Cl)c2ccc(OC(F)F)c(OCC3CC3)c2)cc1OS(C)(=O)=O . Could you help?
Response: 1 to 10 nM

Query: Hello, I am looking for reported IC50 with LPS-induced TNF-α release in peripheral blood mononuclear cells (PBMCs) for O=C(O[C@@H](Cc1c(Cl)c[n+]([O-])cc1Cl)c1ccc(OC(F)F)c(OCC2CC2)c1)[C@@H]1SCCN1S(=O)(=O)c1ccoc1 . Could you help?
Response: < 0.1 nM
